- System: Fibroblast
- protocol.summary: Multiplex assay against human fibroblast
- Format: toxicity, cell-based
- particulars: 24 h, 1 µM, compound concentration 1 uM, replicate 2
measured.parameter: Population Tubulin-Different-Phenotype (%)

Completed entries (count: 3):
{"columns": ["smiles.repr", "observed.result"],
 "data": [
  ["CNC(=O)c1cc(Oc2ccc(NC(=O)Nc3cc(C(C)(C)C)nn3-c3ccc4ncccc4c3)c(F)c2)ccn1", "31%"],
  ["CCCn1c(=O)c2[nH]c(C34CC5CC(CC3C5)C4)nc2n(CCC)c1=O", "15%"],
  ["Nc1ccc(C(=O)Nc2cccc(-c3nc(N4CCOCC4)c4oc5ncccc5c4n3)c2)cn1", "27%"]
]}

Okay, now this molecule:
Report Population Tubulin-Different-Phenotype (%) for COc1cc2c(NC3CCN(C(C)C)CC3)nc(N3CCC(F)(F)CC3)nc2cc1OCCCN1CCCC1 please.
12%
